# assayed target: Sphingosine 1-phosphate receptor 5 (Homo sapiens, UniProt Q9H228)
# Sequence (Q9H228 whole entry): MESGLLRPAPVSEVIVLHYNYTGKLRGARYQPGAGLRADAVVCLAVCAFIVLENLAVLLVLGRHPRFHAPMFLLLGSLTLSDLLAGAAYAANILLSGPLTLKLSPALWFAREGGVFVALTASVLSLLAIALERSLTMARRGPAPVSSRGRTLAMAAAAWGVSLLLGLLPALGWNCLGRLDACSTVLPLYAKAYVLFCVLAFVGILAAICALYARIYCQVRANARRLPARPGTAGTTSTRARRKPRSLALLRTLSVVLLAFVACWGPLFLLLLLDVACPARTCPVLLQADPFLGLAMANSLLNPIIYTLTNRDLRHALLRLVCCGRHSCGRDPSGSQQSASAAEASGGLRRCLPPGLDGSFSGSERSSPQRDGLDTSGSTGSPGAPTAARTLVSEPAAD
# assay notes: Agonist activity at human SIP5 receptor at 10 uM by [35S]GTPgammaS binding assay relative to S1P
# Assay type: functional
Rule: Emax below 80% gives Satisfied. Equal to or above 80% gives Not satisfied.

Past entries and their recorded results:
Cc1nn(C(=O)/C=C/c2cccc(S(N)(=O)=O)c2)c2c1[C@H]1[C@@H](C2)C1(C)C = Satisfied
Cc1nn(C(=O)/C=C/c2cccc(C(F)(F)F)c2)c2c1[C@H]1[C@@H](C2)C1(C)C = Satisfied
Cc1nn(C(=O)/C=C/c2cccnc2)c2c1[C@H]1[C@@H](C2)C1(C)C = Not satisfied
Cc1nn(C(=O)/C=C/c2ccncc2)c2c1[C@H]1[C@@H](C2)C1(C)C = Not satisfied

Emax under 80%? Item: `Cc1nn(C/C=C/c2ccccc2)c2c1[C@H]1[C@@H](C2)C1(C)C`
Satisfied

----------
# assayed target: Sphingosine 1-phosphate receptor 3 (Homo sapiens, UniProt Q99500)
# Sequence (Q99500 whole entry): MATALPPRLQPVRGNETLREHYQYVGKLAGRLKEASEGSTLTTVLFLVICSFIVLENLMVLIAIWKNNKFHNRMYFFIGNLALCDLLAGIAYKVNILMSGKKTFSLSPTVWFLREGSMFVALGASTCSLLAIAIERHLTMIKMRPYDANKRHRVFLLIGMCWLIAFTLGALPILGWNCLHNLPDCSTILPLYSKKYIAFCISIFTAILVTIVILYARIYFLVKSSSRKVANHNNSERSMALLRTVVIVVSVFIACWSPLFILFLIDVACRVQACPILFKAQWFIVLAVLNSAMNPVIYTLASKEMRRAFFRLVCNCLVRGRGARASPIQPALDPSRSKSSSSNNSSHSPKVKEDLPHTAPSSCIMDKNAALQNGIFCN
# assay notes: Agonist activity at human SIP3 receptor at 10 uM by [35S]GTPgammaS binding assay relative to S1P
# Type: functional
Listing: Emax of selected compounds
Quick reminder: number only, in %, skip the unit.

CCCCCCC(=O)n1nc(C)c2c1C[C@@H]1[C@H]2C1(C)C = 44
Cc1nn(C(=O)/C=C/C2CCCCC2)c2c1[C@H]1[C@@H](C2)C1(C)C = 3
Cc1nn(C(=O)/C=C/c2ccccc2Cl)c2c1[C@H]1[C@@H](C2)C1(C)C = 69
COc1ccc(/C=C/C(=O)n2nc(C)c3c2C[C@@H]2[C@H]3C2(C)C)cc1OC = 46
Cc1nn(C(=O)/C=C/c2ccc(-c3ccccc3)cc2)c2c1[C@H]1[C@@H](C2)C1(C)C = 8

Okay, now this compound:
Measured Emax of `Cc1nn(C(=O)/C=C/c2ccc(S(N)(=O)=O)cc2)c2c1[C@H]1[C@@H](C2)C1(C)C` : 68

----------
Listing: Emax of selected compounds
# assayed target: UniProt:Q9H228
# assay notes: Agonist activity at human SIP5 receptor at 10 uM by [35S]GTPgammaS binding assay relative to S1P
# Type: functional

Worked set:
CCCCCCC(=O)n1nc(C)c2c1C[C@@H]1[C@H]2C1(C)C = 2%
Cc1nn(C(=O)/C=C/c2cccc3[nH]ccc23)c2c1[C@H]1[C@@H](C2)C1(C)C = 130%
Cc1nn(S(=O)(=O)/C=C/c2ccccc2)c2c1[C@H]1[C@@H](C2)C1(C)C = -1%
Cc1nn(C(=O)/C=C/c2ccc(S(N)(=O)=O)cc2)c2c1[C@H]1[C@@H](C2)C1(C)C = 16%
Cc1nn(C(=O)/C=C/c2ccccc2)c2c1[C@H]1[C@@H](C2)C1(C)C = 90%
Cc1nn(C(=O)/C=C/c2ccc(-c3ccccc3)cc2)c2c1[C@H]1[C@@H](C2)C1(C)C = 22%
Cc1nn(C(=O)/C=C/C2CCCCC2)c2c1[C@H]1[C@@H](C2)C1(C)C = 29%
Cc1nn(C(=O)/C=C/c2ccccc2Cl)c2c1[C@H]1[C@@H](C2)C1(C)C = -19%

Okay, now this compound:
Measured Emax of `Cc1nn(C(=O)CCc2ccccc2)c2c1[C@H]1[C@@H](C2)C1(C)C` : 26%

----------
Listing: pEC50 of selected compounds
# assayed target: Sphingosine 1-phosphate receptor 5 (Homo sapiens, UniProt Q9H228)
# assay notes: Agonist activity at human SIP5 receptor by [35S]GTPgammaS binding assay
# Assay type: functional
Notebook: values listed as pEC50 are -log10 of the concentration (mol/L).

Cc1nn(C(=O)/C=C/c2cccc(S(N)(=O)=O)c2)c2c1[C@H]1[C@@H](C2)C1(C)C = 7.09
Cc1nn(C(=O)/C=C/c2cccc3[nH]ccc23)c2c1[C@H]1[C@@H](C2)C1(C)C = 6.30
Cc1nn(C(=O)/C=C/c2cccnc2)c2c1[C@H]1[C@@H](C2)C1(C)C = 6.46

`Cc1nn(C(=O)/C=C/c2cccc(C(F)(F)F)c2)c2c1[C@H]1[C@@H](C2)C1(C)C` on Sphingosine 1-phosphate receptor 5 (Homo sapiens, UniProt Q9H228) gives pEC50 = 6.49

----------
# assayed target: Sphingosine 1-phosphate receptor 3 (Homo sapiens)
# assay notes: Agonist activity at human SIP3 receptor by [35S]GTPgammaS binding assay
quantity measured: EC50

Worked set:
Cc1nn(C(=O)/C=C/c2ccccc2Cl)c2c1[C@H]1[C@@H](C2)C1(C)C = > 1000 nM
Cc1nn(C(=O)/C=C/c2ccc(-c3ccccc3)cc2)c2c1[C@H]1[C@@H](C2)C1(C)C = > 10000 nM
Cc1nn(C(=O)/C=C/c2ccccc2)c2c1[C@H]1[C@@H](C2)C1(C)C = > 1000 nM
Cc1nn(C(=O)/C=C/c2cccnc2)c2c1[C@H]1[C@@H](C2)C1(C)C = > 1000 nM
COc1ccc(/C=C/C(=O)n2nc(C)c3c2C[C@@H]2[C@H]3C2(C)C)cc1OC = > 10000 nM

Measured EC50 of `Cc1nn(C(=O)/C=C/c2cccc(S(N)(=O)=O)c2)c2c1[C@H]1[C@@H](C2)C1(C)C` : 1350 nM

----------
# assayed target: Sphingosine 1-phosphate receptor 1 (Homo sapiens, UniProt P21453)
# Sequence (P21453 whole entry): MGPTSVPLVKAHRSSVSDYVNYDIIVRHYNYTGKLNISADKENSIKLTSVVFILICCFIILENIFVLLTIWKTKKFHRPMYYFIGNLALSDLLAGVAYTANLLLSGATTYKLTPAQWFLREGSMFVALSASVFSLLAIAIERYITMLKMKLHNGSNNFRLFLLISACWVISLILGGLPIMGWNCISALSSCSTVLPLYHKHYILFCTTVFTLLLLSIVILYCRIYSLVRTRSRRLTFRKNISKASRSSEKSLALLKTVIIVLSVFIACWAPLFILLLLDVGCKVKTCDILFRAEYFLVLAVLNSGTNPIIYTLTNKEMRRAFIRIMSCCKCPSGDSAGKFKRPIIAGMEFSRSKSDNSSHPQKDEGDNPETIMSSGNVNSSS
# assay notes: Agonist activity at human SIP1 receptor expressed in CHO cells by [35S]GTPgammaS binding assay
quantity measured: EC50 (nM)
Quick reminder: number only, in nM, skip the unit.

Worked set:
Cc1nn(C(=O)/C=C/c2cccnc2)c2c1[C@H]1[C@@H](C2)C1(C)C = 17
COc1ccc(/C=C/C(=O)n2nc(C)c3c2C[C@@H]2[C@H]3C2(C)C)cc1OC = 25
Cc1nn(C(=O)/C=C/c2cccc(C(F)(F)F)c2)c2c1[C@H]1[C@@H](C2)C1(C)C = 26
Cc1nn(C(=O)/C=C/c2ccc(S(N)(=O)=O)cc2)c2c1[C@H]1[C@@H](C2)C1(C)C = 119
Cc1nn(C(=O)/C=C/c2cccc3[nH]ccc23)c2c1[C@H]1[C@@H](C2)C1(C)C = 2

`Cc1nn(C(=O)/C=C/c2ccc(-c3ccccc3)cc2)c2c1[C@H]1[C@@H](C2)C1(C)C` on Sphingosine 1-phosphate receptor 1 (Homo sapiens, UniProt P21453) gives EC50 = 280

`Cc1nn(C(=O)CCc2ccccc2)c2c1[C@H]1[C@@H](C2)C1(C)C` on Sphingosine 1-phosphate receptor 1 (Homo sapiens, UniProt P21453) gives EC50 = 86

----------
# assayed target: Sphingosine 1-phosphate receptor 1 (Homo sapiens, UniProt P21453)
# settings: CHO, at 10 µM
# Description: Agonist activity at human SIP1 receptor expressed in CHO cells at 10 uM by [35S]GTPgammaS binding assay relative to S1P
// F strictly below 60% in Emax; T otherwise

Past entries and their recorded results:
Cc1nn(C(=O)/C=C/C2CCCCC2)c2c1[C@H]1[C@@H](C2)C1(C)C = F
Cc1nn(C(=O)/C=C/c2ccncc2)c2c1[C@H]1[C@@H](C2)C1(C)C = T

Is the recorded value of Emax equal to or greater than 60% for this compound? `Cc1nn(C/C=C/c2ccccc2)c2c1[C@H]1[C@@H](C2)C1(C)C`
F

Is the recorded value of Emax equal to or greater than 60% for this compound? `Cc1nn(C(=O)/C=C/c2ccccc2Cl)c2c1[C@H]1[C@@H](C2)C1(C)C`
T

Is the recorded value of Emax equal to or greater than 60% for this compound? `Cc1nn(C(=O)/C=C/c2ccc(-c3ccccc3)cc2)c2c1[C@H]1[C@@H](C2)C1(C)C`
T

Is the recorded value of Emax equal to or greater than 60% for this compound? `Cc1nn(S(=O)(=O)/C=C/c2ccccc2)c2c1[C@H]1[C@@H](C2)C1(C)C`
F

----------
# assayed target: Sphingosine 1-phosphate receptor 4 (Homo sapiens, UniProt O95977)
# Sequence (O95977 whole entry): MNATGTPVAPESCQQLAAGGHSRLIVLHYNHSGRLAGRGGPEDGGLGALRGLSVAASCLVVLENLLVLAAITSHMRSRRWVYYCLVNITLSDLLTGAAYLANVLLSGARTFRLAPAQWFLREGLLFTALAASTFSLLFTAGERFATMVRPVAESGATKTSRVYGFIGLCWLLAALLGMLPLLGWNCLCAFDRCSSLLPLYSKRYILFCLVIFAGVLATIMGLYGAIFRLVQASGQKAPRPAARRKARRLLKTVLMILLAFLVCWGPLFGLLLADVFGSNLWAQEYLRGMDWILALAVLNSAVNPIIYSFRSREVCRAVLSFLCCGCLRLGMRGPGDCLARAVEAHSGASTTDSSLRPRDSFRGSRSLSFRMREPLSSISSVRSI
# assay notes: Agonist activity at human SIP4 receptor by [35S]GTPgammaS binding assay
Listing: EC50 of selected compounds

Worked set:
Cc1nn(C(=O)/C=C/C2CCCCC2)c2c1[C@H]1[C@@H](C2)C1(C)C = > 10 µM
COc1ccc(/C=C/C(=O)n2nc(C)c3c2C[C@@H]2[C@H]3C2(C)C)cc1OC = > 10 µM
Cc1nn(C(=O)/C=C/c2ccccc2Cl)c2c1[C@H]1[C@@H](C2)C1(C)C = > 10 µM
Cc1nn(S(=O)(=O)/C=C/c2ccccc2)c2c1[C@H]1[C@@H](C2)C1(C)C = > 10 µM
Cc1nn(C(=O)CCc2ccccc2)c2c1[C@H]1[C@@H](C2)C1(C)C = > 10 µM

Measured EC50 of `Cc1nn(C(=O)/C=C/c2cccnc2)c2c1[C@H]1[C@@H](C2)C1(C)C` : 0.1 µM

Measured EC50 of `Cc1nn(C(=O)/C=C/c2cccc(C(F)(F)F)c2)c2c1[C@H]1[C@@H](C2)C1(C)C` : > 10 µM

Measured EC50 of `CCCCCCC(=O)n1nc(C)c2c1C[C@@H]1[C@H]2C1(C)C` : > 10 µM

Measured EC50 of `Cc1nn(C(=O)/C=C/c2ccncc2)c2c1[C@H]1[C@@H](C2)C1(C)C` : 0.1 µM

Measured EC50 of `Cc1nn(C(=O)/C=C/c2ccc(S(N)(=O)=O)cc2)c2c1[C@H]1[C@@H](C2)C1(C)C` : > 10 µM

Measured EC50 of `Cc1nn(C(=O)/C=C/c2ccccc2)c2c1[C@H]1[C@@H](C2)C1(C)C` : > 10 µM

Measured EC50 of `Cc1nn(C(=O)/C=C/c2cccc(S(N)(=O)=O)c2)c2c1[C@H]1[C@@H](C2)C1(C)C` : 0.116 µM

Measured EC50 of `Cc1nn(C/C=C/c2ccccc2)c2c1[C@H]1[C@@H](C2)C1(C)C` : > 10 µM

Measured EC50 of `Cc1nn(C(=O)/C=C/c2cccc3[nH]ccc23)c2c1[C@H]1[C@@H](C2)C1(C)C` : 0.56 µM

Measured EC50 of `Cc1nn(C(=O)/C=C/c2ccc(-c3ccccc3)cc2)c2c1[C@H]1[C@@H](C2)C1(C)C` : > 10 µM
